Entry source: the supplement of paper PMC9170038

# Tested on: MS2 coat protein
# testProtocol: apparent KD of MS2 coat protein; designed switch direction (-1 OFF switch, 1 ON switch): -1; higher = weaker reporter binding
# appliedConditions: input ligand: FMN 200 uM
measuredQuantity: apparent KD of MS2 coat protein (nM)
Entry rule: numbers only, all in nM.

Some sequences with known apparent KD of MS2 coat protein results, for comparison:
- itemSequence: "GCAAGCUUUUGCUCGUCUUACAUGAGGAUCACCCAUGUCGGGUGAUUGCUUCGUGCCCGGGCCCGCCGGGCCCGGGC [-41.5, -70.8 kcal, A 12%] (Eterna round: R97, puzzle: Sensor, turn-off variant 1)"
  apparent KD of MS2 coat protein [nM]: 76.9
- itemSequence: "GACCUCCCUGUAAGGAUAUCCAUGCAUCAAAGCAUGGAGAAGGUACAUGAGGAUCACCCAUGUCACCCGCGUUA (Eterna round: R97, puzzle: Brourd's mod of Exclusion 4)"
  apparent KD of MS2 coat protein [nM]: 20.7
- itemSequence: "GGUUCGAAUGUGAGGAUAUGCUGGUCCUUGGAUCAGCAGAAGGCACAUGAGGAUCACCCAUGUGGUAACGGACC [Mat - Exclusion 4 - Eli Mod - D36] (Eterna round: R97, puzzle: Brourd's mod of Exclusion 4)"
  apparent KD of MS2 coat protein [nM]: 178
- itemSequence: "UCGAAAUCUAACAAGCCAUACAUGAGGAUCACCCAUGUGUUCGUCAUAGCGAUCCGACAUGAUGCUCGUCGAAAUAC [Eternabot (L2) Solution 48] (Eterna round: R97, puzzle: Sensor, turn-off variant 1)"
  apparent KD of MS2 coat protein [nM]: 448

State its apparent KD of MS2 coat protein on MS2 coat protein: AGGGAGUCAGGAUAUUAUUUUUAGCGGGAUAACGCUGAGGGUGAGAAGGGACAUGAGGAUCACCCAUGUUUUGA [JR_Ex4_Sub075] (Eterna round: R97, puzzle: Exclusion 4)
167
